- target-or-system: CDK2/cyclin A (Homo sapiens, UniProt P24941)
- Construct: made in house; host or cells: CDK2: insect cells (baculovirus); cyclin A: E. coli
- protocol: Inhibition of CDK2/cyclin A retinoblastoma kinase activity (Ki; % inhibition)
- Type: biochemical
- test-context: at 0.03 μM
experimental-endpoint: CDK2 % Inhibition at 0.03 μM (%)
Unit % implied. Number only.

>>> measured("Nc1nc(Nc2ccc(C(=O)Nc3cccc4ncccc34)cc2)sc1C(=O)c1c(F)cccc1F [Example G67]")
25
>>> measured("Nc1nc(Nc2ccc(C(=O)NC3CCc4ccccc43)cc2)sc1C(=O)c1c(F)cccc1F (stereo not shown) [Example G95]")
12
>>> measured("Nc1nc(Nc2ccc(C(=O)N3CCC4(CC3)OCCO4)cc2)sc1C(=O)c1c(F)cccc1F [Example G34]")
8

Q. Requested read-out: CDK2 % Inhibition at 0.03 μM. Entry: CC(C)NC(=O)c1ccc(Nc2nc(N)c(C(=O)c3c(F)cccc3F)s2)cc1 [Example G96]
A. −10

###

Recorded HCT-116 % Inhibition at 0.1 μM by entry
- System: HCT-116 cell line
- protocol: Inhibition of cell growth, MTT tetrazolium salt assay
- Format: cell-based
- test-context: HCT-116 cells, 0.1 μM compound
Unit % implied. Number only.

A selection of reference data follows.
>>> measured("Nc1nc(Nc2ccc(C(=O)NCc3cc(F)ccc3F)cc2)sc1C(=O)c1c(F)cccc1F")
5
>>> measured("Cc1ccc(CNC(=O)c2ccc(Nc3nc(N)c(C(=O)c4c(F)cccc4F)s3)cc2)cc1")
19

Q. Requested read-out: HCT-116 % Inhibition at 0.1 μM. Entry: Nc1nc(Nc2ccc(C(=O)N3CCN(CCO)CC3)cc2)sc1C(=O)c1c(F)cccc1F
A. 33

Q. Requested read-out: HCT-116 % Inhibition at 0.1 μM. Entry: CCOc1ccc(NC(=O)c2ccc(Nc3nc(N)c(C(=O)c4c(F)cccc4F)s3)cc2)cc1
A. 10

Q. Requested read-out: HCT-116 % Inhibition at 0.1 μM. Entry: Nc1nc(Nc2ccc(C(=O)NCc3ccc(OC(F)(F)F)cc3)cc2)sc1C(=O)c1c(F)cccc1F
A. 11

Q. Requested read-out: HCT-116 % Inhibition at 0.1 μM. Entry: Nc1nc(Nc2ccc(C(=O)NC3CCC(O)CC3)cc2)sc1C(=O)c1c(F)cccc1F (stereo not shown)
A. 15

Q. Requested read-out: HCT-116 % Inhibition at 0.1 μM. Entry: Nc1nc(Nc2ccc(C(=O)NCCCCCO)cc2)sc1C(=O)c1c(F)cccc1F
A. 15

Q. Requested read-out: HCT-116 % Inhibition at 0.1 μM. Entry: COc1ccc(CCNC(=O)c2ccc(Nc3nc(N)c(C(=O)c4c(F)cccc4F)s3)cc2)cc1OC
A. 28

###

- target-or-system: human CDK4/cyclin D3 (Homo sapiens)
- Construct: made in house; host or cells: insect cells co-infected with baculovirus vectors
- Sequence (P11802 whole entry): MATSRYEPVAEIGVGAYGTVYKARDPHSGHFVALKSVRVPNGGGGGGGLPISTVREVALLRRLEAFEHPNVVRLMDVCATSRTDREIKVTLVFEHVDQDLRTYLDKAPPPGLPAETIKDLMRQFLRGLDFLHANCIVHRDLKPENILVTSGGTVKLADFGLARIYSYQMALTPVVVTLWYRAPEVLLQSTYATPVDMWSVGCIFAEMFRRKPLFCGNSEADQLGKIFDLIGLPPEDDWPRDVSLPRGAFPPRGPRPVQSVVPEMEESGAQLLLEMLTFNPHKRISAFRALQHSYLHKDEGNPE
- Sequence (P30281 1-264 partner limits assumed): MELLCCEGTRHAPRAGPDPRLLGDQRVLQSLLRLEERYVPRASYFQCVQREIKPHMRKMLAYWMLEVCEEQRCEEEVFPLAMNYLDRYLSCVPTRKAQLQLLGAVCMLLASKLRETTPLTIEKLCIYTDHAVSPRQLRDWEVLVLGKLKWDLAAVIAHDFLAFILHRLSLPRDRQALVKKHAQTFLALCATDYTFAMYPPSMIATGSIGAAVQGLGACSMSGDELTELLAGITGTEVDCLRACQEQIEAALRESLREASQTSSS
- protocol: Inhibition of CDK4/cyclin D retinoblastoma kinase activity (Ki; % inhibition)
- Format: biochemical
- test-context: 0.03 μM compound
Recorded CDK4 % Inhibition at 0.03 μM by entry

>>> measured("CCCCN(CCCCO)C(=O)c1ccc(Nc2nc(N)c(C(=O)c3c(F)cccc3F)s2)cc1 [Example G340]")
"9%"

Q. Requested read-out: CDK4 % Inhibition at 0.03 μM. Entry: Nc1nc(Nc2ccc(C(=O)Nc3cccc(F)c3)cc2)sc1C(=O)c1c(F)cccc1F [Example G289]
A. 9%

Q. Requested read-out: CDK4 % Inhibition at 0.03 μM. Entry: CSCCC(CO)NC(=O)c1ccc(Nc2nc(N)c(C(=O)c3c(F)cccc3F)s2)cc1 (stereo not shown) [Example G386]
A. 12%

Q. Requested read-out: CDK4 % Inhibition at 0.03 μM. Entry: Nc1nc(Nc2ccc(C(=O)NCc3ccc(Cl)cc3)cc2)sc1C(=O)c1c(F)cccc1F [Example G258]
A. 20%
